- Tested on: SNB-78 CNS
- Procedure Details: NCI tumour cell line growth inhibition, 48 h
Measured Endpoint: TGI

Consider the worked cases shown below.
CN(c1ccc(C(=O)c2ccc(N(C)S(C)(=O)=O)cc2)cc1)S(C)(=O)=O	> 100 µM
CCc1cccc(C)c1NC(=O)C(=O)CC(=O)c1ccc(Cl)s1	> 100 µM
C[N+](C)(C)CC(=O)N/N=C(/C(=O)Nc1ccc(Br)cc1)C1C(=O)NC(=O)NC1=O	> 100 µM
COCN1COCN=C1NC#N	> 100 µM
C[CH2][Ge]([CH2]C)([CH2]C)[O]C(=O)C(OC(C)=O)c1ccccc1 (stereo not given)	> 100 µM

// query Item: `O=C(CSc1nc(-c2ccccc2)c(-c2ccccc2)[nH]1)N/N=C/c1ccc(O)cc1` Test system: SNB-78 CNS Read-out: TGI Value: ?
// result > 100 µM

// query Also need `O=c1[nH]c2ccccc2nc1/C=C(\O)c1ccccc1O` , thanks.
// result > 100 µM

// query Also need `CC1=C(C(=O)Nc2ccccc2)C(c2cccc3ccccc23)C(C(=O)Nc2ccccc2)=C(C)N1` , thanks.
// result 94.3 µM

// query Also need `Nc1ccc(C(=O)N/C(=C\c2cccc([N+](=O)[O-])c2)c2nc3[nH]c(=S)[nH]c(=O)c3[nH]2)cc1` , thanks.
// result > 100 µM

// query Also need `CN(C)CCNC(=O)c1cccc2cc3c(Cl)cccc3nc12` , thanks.
// result 8.26 µM
